STUDY_TARGET: IN-LEDGF/p75 binding (Human immunodeficiency virus type 1 group M subtype B, UniProt P12497)
EXPERIMENT: HTRF-based inhibition assay for LEDGF/p75 binding to IN
Type: biochemical, HIV-1
ASSAY_ENDPOINT: pIC50
One number for each entry, as −log10 of the molar value.

-- ask I'd like to know its pIC50. The compound in question is `Cc1nc2c(c(C)c(C)n2Cc2cnn(C)c2)c(-c2ccc(Cl)cc2)c1[C@H](OC(C)(C)C)C(=O)O`
-- reply 6.72

* * *

EXPERIMENT: In vivo pharmacokinetics in beagle dogs
PROTOCOL_CONDITIONS: male, plasma, po, Dog, 2 mg/kg (p.o)
ASSAY_ENDPOINT: Cmax (µM)
One number for each entry, in µM.

-- ask I'd like to know its Cmax. The compound in question is Cc1nc2c(c(C)c(C)n2Cc2cnn(C)c2)c(-c2ccc(Cl)cc2)c1[C@H](OC(C)(C)C)C(=O)O [STP0404]
-- reply 3.98

* * *

EXPERIMENT: In vivo pharmacokinetics in beagle dogs
PROTOCOL_CONDITIONS: male, plasma, po, Dog, 2 mg/kg (p.o)
ASSAY_ENDPOINT: AUC (µM·h)
One number for each entry, in µM·h.

-- ask I'd like to know its AUC. The compound in question is `Cc1nc2c(c(C)c(C)n2Cc2cnn(C)c2)c(-c2ccc(Cl)cc2)c1[C@H](OC(C)(C)C)C(=O)O`
-- reply 4.68

* * *

EXPERIMENT: Plasma protein binding (equilibrium dialysis)
Format: in vitro ADME
PROTOCOL_CONDITIONS: Sprague-Dawley (rat), beagle (dog), cynomolgus monkey, pH 7.4, monkey and human plasma, read-out: In vitro protein binding
ASSAY_ENDPOINT: fraction unbound at 4 h, 2 μM

-- ask I'd like to know its fraction unbound at 4 h, 2 μM. The compound in question is Cc1nc2c(c(C)c(C)n2Cc2cnn(C)c2)c(-c2ccc(Cl)cc2)c1[C@H](OC(C)(C)C)C(=O)O [STP0404]
-- reply 0.003 to 0.061

* * *

Test system: HIV-1_89.6
EXPERIMENT: In vitro anti-viral assay in CEMx174 cells (p24)
Type: cell-based
PROTOCOL_CONDITIONS: HIV-1 89.6 / CEMx174 cells; read-out: IC50
ASSAY_ENDPOINT: pIC50
One number for each entry, as −log10 of the molar value.

-- ask I'd like to know its pIC50. The molecule in question is Cc1nc2c(c(C)c(C)n2Cc2cnn(C)c2)c(-c2ccc(Cl)cc2)c1[C@H](OC(C)(C)C)C(=O)O [(S) form]
-- reply 8.89

* * *

EXPERIMENT: In vivo pharmacokinetics in SD rats
PROTOCOL_CONDITIONS: Sprague-Dawley, plasma, iv; Rat; 5 mg/kg (i.v)
ASSAY_ENDPOINT: AUC (µM·h)
Give bare numbers, in µM·h.

-- ask I'd like to know its AUC. The compound in question is `Cc1nc2c(c(C)c(C)n2Cc2cnn(C)c2)c(-c2ccc(Cl)cc2)c1[C@H](OC(C)(C)C)C(=O)O`
-- reply 42.7
